# test.details: Drug level in mouse brain assessed as compound level in soluble tissue fraction at 10 uM after 1 hr by LC-MS/MS analysis
# Type: ADME, tissue-based
reported.metric: Drug uptake (%)

Check out these entries, answers already filled in.
Quick one: give measured Drug uptake for Cc1ccc2c(c1)c1c(n2C)CN(C(=O)c2ncn3c(=O)n(C)nnc23)CC1
2

Quick one: give measured Drug uptake for NC(=O)c1[nH]cnc1N
48

Quick one: give measured Drug uptake for CN1CCc2c(n(CCNC(=O)c3ncn4c(=O)n(C)nnc34)c3ccc(Cl)cc23)C1
11

Quick one: give measured Drug uptake for CN1CCc2c(n(CCNC(=O)c3nc[nH]c3N)c3ccc(Cl)cc23)C1
7

Quick one: give measured Drug uptake for Nc1[nH]cnc1C(=O)N1CCc2c(n(C3CC3)c3c(Cl)cc(Cl)cc23)C1
1

I = Cc1ccc2c(c1)c1c(n2C)CN(C(=O)c2nc[nH]c2N)CC1
II = Cn1nnc2c(C(=O)N3CCc4c(n(C5CC5)c5c(Cl)cc(Cl)cc45)C3)ncn2c1=O
III = Cn1nnc2c(C(N)=O)ncn2c1=O [TEMOZOLOMIDE]
hey, can you rank those compounds up there by Drug uptake? biggest number first please Write the labels out in the order the request specifies.
III, II, I
(III: 50%, II: 3%, I: 1%)
